Tested on: SK-OV-3 ovarian
Experimental details: NCI tumour cell line growth inhibition, 48 h
Entries annotated with measured TGI
Measured metric: TGI

[[record]]
molecule = "C=CCSS/C=C/CS(=O)CC=C (stereo unspecified)"
system_under_test = "SK-OV-3 ovarian"
value_observed = "> 100 µM"

[[record]]
molecule = "Cc1cc(N/N=C/c2nc(-c3ccc(Br)cc3)oc2C)c2cc(Br)ccc2n1"
system_under_test = "SK-OV-3 ovarian"
value_observed = "30.2 µM"

[[record]]
molecule = "C1C[OH+]CCNCC[OH+]CC[OH+]CCN1.[Cl-].[Pt+4]"
system_under_test = "SK-OV-3 ovarian"
value_observed = "> 100 µM"

[[record]]
molecule = "CC1=NN(C(=O)CC(=O)N(C(=O)c2ccccc2Cl)c2ccc(C)cc2)C(=O)C1N=Nc1ccc([N+](=O)[O-])cc1 (stereo unspecified)"
system_under_test = "SK-OV-3 ovarian"
value_observed = "69.6 µM"

[[record]]
molecule = "Cc1cc(I)cc(CN(C)CCCN2CCOCC2)c1O"
system_under_test = "SK-OV-3 ovarian"
value_observed = "> 100 µM"

[[record]]
molecule = "CC12CCCCC1(C)C2Sc1ccccc1 (stereo unspecified)"
system_under_test = "SK-OV-3 ovarian"
value_observed = "> 100 µM"

[[record]]
molecule = "NC1=NS(=O)(=O)Nc2nc(-c3ccc([N+](=O)[O-])cc3)[nH]c21"
system_under_test = "SK-OV-3 ovarian"
value_observed = "> 100 µM"

[[record]]
molecule = "OCC1OC(n2cnc3c(Cl)nc(Nc4ccccc4)nc32)CC1O (stereo unspecified)"
system_under_test = "SK-OV-3 ovarian"
value_observed = "> 100 µM"

[[record]]
molecule = "CC(C)N=c1cc2n(-c3ccc(Cl)cc3)c3ccccc3nc-2cc1Nc1ccc(Cl)cc1"
system_under_test = "SK-OV-3 ovarian"
value_observed = "> 50 µM"

[[record]]
molecule = "Cc1ccc(/C(O)=C/C(=O)C(=O)/C=C(\\O)c2ccc(C)cc2C)c(C)c1"
system_under_test = "SK-OV-3 ovarian"
value_observed = "3.47 µM"

[[record]]
molecule = "CCN1C(=O)C(=C/C=C/c2ccc([N+](=O)[O-])cc2)C(=O)N(CC)C1=S"
system_under_test = "SK-OV-3 ovarian"
value_observed = "> 100 µM"

[[record]]
molecule = "Cc1cc2c(cc1Cl)SC(=Nc1ccc(Cl)cc1)N(S(=O)(=O)c1ccccc1)S2(=O)=O"
system_under_test = "SK-OV-3 ovarian"
value_observed = "44.4 µM"

[[record]]
molecule = "O=C(COc1ccc(/C=C2\\CSc3ccccc3C2=O)cc1)Nc1nccs1"
system_under_test = "SK-OV-3 ovarian"
value_observed = "42.2 µM"

[[record]]
molecule = "COC(=O)C1=C2SCc3cccc(c3)CSC3=C(C(=O)OC)SC(=C(S2)S1)S3"
system_under_test = "SK-OV-3 ovarian"
value_observed = "> 100 µM"

[[record]]
molecule = "C=CCNC(=O)N(CCC)CCCCC(NC(C)=O)C(=O)NCc1ccccc1 (stereo unspecified)"
system_under_test = "SK-OV-3 ovarian"
value_observed = "> 100 µM"

[[record]]
molecule = "O=C(NC(Cc1ccc(I)cc1)C(=O)O)c1ccc(Br)cc1 (stereo unspecified)"
system_under_test = "SK-OV-3 ovarian"
value_observed = "> 100 µM"

[[record]]
molecule = "Cc1cc(C2CC(O)C(CO)O2)cc2c(=O)[nH]c(N)nc12 (stereo unspecified)"
system_under_test = "SK-OV-3 ovarian"
value_observed = "> 100 µM"

[[record]]
molecule = "O=c1c2c([N+](=O)[O-])cccc2nc2[nH]c3ccccc3n12"
system_under_test = "SK-OV-3 ovarian"
value_observed = "24.6 µM"

[[record]]
molecule = "COc1cccc(-n2c3nc(=O)n(C)c(=O)c-3nc3ccccc32)c1"
system_under_test = "SK-OV-3 ovarian"
value_observed = "> 100 µM"

[[record]]
molecule = "COc1ccc2[nH]c3c4c(ccc3c2c1)C(=O)C=CC4=O"
system_under_test = "SK-OV-3 ovarian"
value_observed = "> 100 µM"

[[record]]
molecule = "COc1cc(C2SCC(=O)N2c2ccc(-c3ccc(-n4c(-c5ccccc5)nc5ccccc5c4=O)cc3)cc2)cc(OC)c1OC (stereo unspecified)"
system_under_test = "SK-OV-3 ovarian"
value_observed = "> 100 µM"

[[record]]
molecule = "COc1ccc2c(c1)[C@@]13CCCC[C@H]1[C@@H](C2)N(C)CC3=O"
system_under_test = "SK-OV-3 ovarian"
value_observed = "53.9 µM"

[[record]]
molecule = "N#Cc1c(-c2ccccc2)nc(-c2ccccc2)sc1=S"
system_under_test = "SK-OV-3 ovarian"
value_observed = "> 100 µM"

[[record]]
molecule = "c1cc2nnnn2nc1N1CCCC1"
system_under_test = "SK-OV-3 ovarian"
value_observed = "> 100 µM"

[[record]]
molecule = "C[C@]12CC[C@@H]3c4ccc(O)cc4CC[C@H]3[C@@H]1CC[C@@H]2NS(=O)(=O)c1cccc(F)c1"
system_under_test = "SK-OV-3 ovarian"
value_observed = "18.2 µM"

[[record]]
molecule = "COC(=O)N/N=C(\\C)C(CN1CCCCC1)C(C1=C(O)c2ccccc2OC1)c1ccccc1 (stereo unspecified)"
system_under_test = "SK-OV-3 ovarian"
value_observed = "> 100 µM"

[[record]]
molecule = "COC(=O)[C@@H]1CCCN1CCN1CCC[C@H]1C(=O)OC"
system_under_test = "SK-OV-3 ovarian"
value_observed = "> 100 µM"

[[record]]
molecule = "COc1ccc(/C=N/N=C(\\N)NO)c(O)c1"
system_under_test = "SK-OV-3 ovarian"
value_observed = "> 10 µM"

[[record]]
molecule = "Cc1c(C2=C(Br)C(=O)N(C)C2=O)c(=O)n(C)c(=O)n1C"
system_under_test = "SK-OV-3 ovarian"
value_observed = "> 100 µM"

[[record]]
molecule = "NCCSc1nc2ccccc2c(=O)n1-c1ccccc1"
system_under_test = "SK-OV-3 ovarian"
value_observed = "> 100 µM"

[[record]]
molecule = "C[C@]12CCc3nc(Nc4ccccc4)sc3C1=CC[C@@H]1[C@@H]2CC[C@]2(C)/C(=N/NC(N)=S)CC[C@@H]12"
system_under_test = "SK-OV-3 ovarian"
value_observed = "> 100 µM"

[[record]]
molecule = "Cc1cc[c-]cc1.Fc1c[c-]c(-c2ccccn2)c(F)c1.[Pt+2].c1ccc(P(C[PH+](c2ccccc2)c2ccccc2)c2ccccc2)cc1"
system_under_test = "SK-OV-3 ovarian"
value_observed = "7.79 µM"

[[record]]
molecule = "O=C(Cc1ccccc1)NN1C(=O)C(Cl)C1c1ccc(O)cc1 (stereo unspecified)"
system_under_test = "SK-OV-3 ovarian"
value_observed = "> 100 µM"

[[record]]
molecule = "C[C@H](N)C(=O)Nc1ccc(-c2nc3ccccc3s2)cc1"
system_under_test = "SK-OV-3 ovarian"
value_observed = "57.2 µM"

[[record]]
molecule = "COc1ccc(O)cc1"
system_under_test = "SK-OV-3 ovarian"
value_observed = "> 100 µM"

[[record]]
molecule = "CN(NC(=O)c1cccs1)C1=NCCCN1"
system_under_test = "SK-OV-3 ovarian"
value_observed = "> 100 µM"

[[record]]
molecule = "CCOC(=N)CC(=O)Nc1cccc(C)c1C"
system_under_test = "SK-OV-3 ovarian"
value_observed = "> 100 µM"

[[record]]
molecule = "CC(=O)c1sc(-c2nc(C)c(C(=O)/C=C\\c3ccc(/C=C\\C(=O)c4sc(-c5nc(C)c(C(C)=O)s5)nc4C)cc3)s2)nc1C"
system_under_test = "SK-OV-3 ovarian"
value_observed = "> 100 µM"

[[record]]
molecule = "COC(=O)C1=C(C(=O)OC)SC2(S1)C1=C(CCCC1)SC(C(=O)OC)=C2C(=O)OC"
system_under_test = "SK-OV-3 ovarian"
value_observed = "28.1 µM"

[[record]]
molecule = "Cc1cc(C)c(C2[C@H]3C(=O)N(c4ccc(Cc5ccc(N6C(=O)[C@@H]7ON(c8ccccc8)C(c8c(C)cc(C)cc8C)[C@@H]7C6=O)cc5)cc4)C(=O)[C@H]3ON2c2ccccc2)c(C)c1 (stereo partly specified)"
system_under_test = "SK-OV-3 ovarian"
value_observed = "> 100 µM"

[[record]]
molecule = "COC(=O)/C(C=O)=C/Sc1ccccc1"
system_under_test = "SK-OV-3 ovarian"
value_observed = "88.5 µM"


All figures here come from PubChem BioAssay (NCI).
